- target_or_system: UniProt P32245
- Sequence (P32245 whole entry): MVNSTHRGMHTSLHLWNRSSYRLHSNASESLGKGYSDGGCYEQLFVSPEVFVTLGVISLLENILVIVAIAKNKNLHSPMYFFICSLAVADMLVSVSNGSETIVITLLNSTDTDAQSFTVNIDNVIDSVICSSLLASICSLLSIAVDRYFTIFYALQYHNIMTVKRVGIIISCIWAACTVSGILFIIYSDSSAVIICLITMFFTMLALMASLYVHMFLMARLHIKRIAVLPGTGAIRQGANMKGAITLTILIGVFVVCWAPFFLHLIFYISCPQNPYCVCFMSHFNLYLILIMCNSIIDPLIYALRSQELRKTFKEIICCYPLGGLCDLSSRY
- measurement_description: cAMP functional assay (agonist)
metric: pEC50
Interpret pEC50 as the negative base-10 log of the concentration measured in mol/L.

Give the measured pEC50 of CC[C@H](NC(C)=O)c1cc(Cl)ccc1C1CCN(C(=O)[C@@H]2CN(C(C)(C)C)C[C@H]2c2ccc(F)cc2F)CC1 [Compound A] .
7.85

----------
- target_or_system: hMC3R (Homo sapiens)
- Sequence (P41968 whole entry): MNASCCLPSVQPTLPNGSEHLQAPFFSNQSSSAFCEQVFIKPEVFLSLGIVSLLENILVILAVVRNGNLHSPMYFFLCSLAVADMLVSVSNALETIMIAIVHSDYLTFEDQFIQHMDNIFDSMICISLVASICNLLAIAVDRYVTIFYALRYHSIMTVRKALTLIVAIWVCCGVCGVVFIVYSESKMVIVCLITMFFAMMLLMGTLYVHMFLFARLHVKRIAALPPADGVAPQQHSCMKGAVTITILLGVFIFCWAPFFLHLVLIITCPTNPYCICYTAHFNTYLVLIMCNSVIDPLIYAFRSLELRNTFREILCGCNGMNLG
- measurement_description: cAMP functional assay (agonist)
metric: pEC50
Interpret pEC50 as the negative base-10 log of the concentration measured in mol/L.

Give the measured pEC50 of CC[C@H](NC(C)=O)c1cc(Cl)ccc1C1CCN(C(=O)[C@@H]2CN(C(C)(C)C)C[C@H]2c2ccc(F)cc2F)CC1 .
6.04
